From: patent US7842719B2

# Test system: BVDV-strain Pe515
# Type: cell-based, bovine viral diarrhea virus
Consider the following molecules; for each one, report its EC50 BVDV.
Answers are plain numbers, in µg/mL.

Examples with answers:
C[C@H]1[C@@H](O)O[C@@H]2O[C@@]3(C)CC[C@H]4[C@H](C)CC[C@@H]1[C@@]24OO3 [Dihydroartemisinin, dihydroartemisinin]	0.05
CO[C@H]1O[C@@H]2O[C@@]3(C)CC[C@H]4[C@H](C)CC[C@@H]([C@H]1C)[C@@]24OO3 [Artemether, artemether]	0.3
C[C@@H]1CC[C@H]2[C@@H](C)C(=O)O[C@@H]3O[C@@]4(C)CC[C@@H]1[C@]32OO4 [Artemisinin, artemisinin]	0.4

// next entry
Reported EC50 BVDV of C[C@H]1[C@H](OC(=O)CCC(=O)O)O[C@@H]2O[C@@]3(C)CC[C@H]4[C@H](C)CC[C@@H]1[C@@]24OO3 [Artensunate, artesunate] : 0.07
